The reported measurements were obtained from the kinase profiling compilation of Christmann-Franck et al. (2016).

target: KDR (human); experiment: KINOMEscan competition binding; settings: compound 10.0 µM
Listed compounds paired with reported kinase still bound, per cent of control
Give the quantity in %, number only.

Examples with their reported kinase still bound, per cent of control follow.
substanceSmiles: CN(C)C/C=C/C(=O)Nc1cccc(Nc2ncc3c(n2)N(C)c2ccccc2C(=O)N3C)c1
quantityKind: kinase still bound, per cent of control
resultValue: 90

substanceSmiles: CCN1CCN(Cc2ccc(Nc3ncc4c(n3)N(C)c3ccccc3C(=O)N4C)cc2C(F)(F)F)CC1
quantityKind: kinase still bound, per cent of control
resultValue: 100

substanceSmiles: O=C(NC1CC1)c1cccc(-c2ccc3c(NC(=O)C4CC4)n[nH]c3c2)c1
quantityKind: kinase still bound, per cent of control
resultValue: 93

Now look at this entry.
Missing value: kinase still bound, per cent of control, KDR (human), entry C=CC(=O)Nc1cc(NC(=O)c2ccc(C)c(NC(=O)c3ccno3)c2)cc(C(F)(F)F)c1 . Fill in?
87

###

target: ZAP70 (human) (UniProt P43403); test: KINOMEscan competition binding; settings: compound 10.0 µM
Sequence (P43403 whole entry, looked up): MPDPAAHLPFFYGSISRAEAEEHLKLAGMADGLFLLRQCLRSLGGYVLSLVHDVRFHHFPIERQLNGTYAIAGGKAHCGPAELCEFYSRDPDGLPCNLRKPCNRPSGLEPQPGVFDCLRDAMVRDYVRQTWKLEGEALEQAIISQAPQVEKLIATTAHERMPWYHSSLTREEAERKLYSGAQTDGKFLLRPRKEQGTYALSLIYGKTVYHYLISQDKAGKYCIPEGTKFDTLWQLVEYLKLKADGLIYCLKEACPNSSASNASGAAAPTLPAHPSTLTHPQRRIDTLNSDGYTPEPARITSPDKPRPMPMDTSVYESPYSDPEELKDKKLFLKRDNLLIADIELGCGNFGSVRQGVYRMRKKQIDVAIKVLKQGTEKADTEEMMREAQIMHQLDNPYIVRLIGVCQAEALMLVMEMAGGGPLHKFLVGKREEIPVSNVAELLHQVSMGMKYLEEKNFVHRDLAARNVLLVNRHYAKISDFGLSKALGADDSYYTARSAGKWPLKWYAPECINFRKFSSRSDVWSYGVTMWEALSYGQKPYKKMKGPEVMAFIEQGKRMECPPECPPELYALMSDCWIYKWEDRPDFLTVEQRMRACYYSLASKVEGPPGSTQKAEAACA
Item-by-item account of kinase still bound, per cent of control
Give your result in % as a bare value.

Look over these answered cases.
substanceSmiles: Cn1c(=O)n(-c2ccc(C(C)(C)C#N)cc2)c2c3cc(-c4cnc5ccccc5c4)ccc3ncc21
measuredTarget: ZAP70 (human) (UniProt P43403)
unitSymbol: %
kinase still bound, per cent of control: 100

substanceSmiles: C=CC(=O)Nc1cccc(Nc2nc(N[C@H]3CC[C@H](N(C)C)CC3)nc3c2ncn3C(C)C)c1
measuredTarget: ZAP70 (human) (UniProt P43403)
unitSymbol: %
kinase still bound, per cent of control: 77

substanceSmiles: COc1cc(C(=O)NC2CCN(C)CC2)ccc1Nc1ncc2c(n1)N(C1CCCC1)CCC(=O)N2C(C)C
measuredTarget: ZAP70 (human) (UniProt P43403)
unitSymbol: %
kinase still bound, per cent of control: 100

substanceSmiles: O=C1Nc2ccc(I)cc2/C1=C/c1cc(Br)c(O)c(Br)c1
measuredTarget: ZAP70 (human) (UniProt P43403)
unitSymbol: %
kinase still bound, per cent of control: 84

Lookup: kinase still bound, per cent of control / ZAP70 (human) (UniProt P43403) / Cc1cc([C@@H](C)Nc2ccccc2C(=O)O)c2nc(N3CCOCC3)cc(=O)n2c1
100

###

target: EPHA2 (human) (UniProt P29317); assay: KINOMEscan competition binding; conditions: compound 10.0 µM
Sequence (P29317 whole entry, looked up): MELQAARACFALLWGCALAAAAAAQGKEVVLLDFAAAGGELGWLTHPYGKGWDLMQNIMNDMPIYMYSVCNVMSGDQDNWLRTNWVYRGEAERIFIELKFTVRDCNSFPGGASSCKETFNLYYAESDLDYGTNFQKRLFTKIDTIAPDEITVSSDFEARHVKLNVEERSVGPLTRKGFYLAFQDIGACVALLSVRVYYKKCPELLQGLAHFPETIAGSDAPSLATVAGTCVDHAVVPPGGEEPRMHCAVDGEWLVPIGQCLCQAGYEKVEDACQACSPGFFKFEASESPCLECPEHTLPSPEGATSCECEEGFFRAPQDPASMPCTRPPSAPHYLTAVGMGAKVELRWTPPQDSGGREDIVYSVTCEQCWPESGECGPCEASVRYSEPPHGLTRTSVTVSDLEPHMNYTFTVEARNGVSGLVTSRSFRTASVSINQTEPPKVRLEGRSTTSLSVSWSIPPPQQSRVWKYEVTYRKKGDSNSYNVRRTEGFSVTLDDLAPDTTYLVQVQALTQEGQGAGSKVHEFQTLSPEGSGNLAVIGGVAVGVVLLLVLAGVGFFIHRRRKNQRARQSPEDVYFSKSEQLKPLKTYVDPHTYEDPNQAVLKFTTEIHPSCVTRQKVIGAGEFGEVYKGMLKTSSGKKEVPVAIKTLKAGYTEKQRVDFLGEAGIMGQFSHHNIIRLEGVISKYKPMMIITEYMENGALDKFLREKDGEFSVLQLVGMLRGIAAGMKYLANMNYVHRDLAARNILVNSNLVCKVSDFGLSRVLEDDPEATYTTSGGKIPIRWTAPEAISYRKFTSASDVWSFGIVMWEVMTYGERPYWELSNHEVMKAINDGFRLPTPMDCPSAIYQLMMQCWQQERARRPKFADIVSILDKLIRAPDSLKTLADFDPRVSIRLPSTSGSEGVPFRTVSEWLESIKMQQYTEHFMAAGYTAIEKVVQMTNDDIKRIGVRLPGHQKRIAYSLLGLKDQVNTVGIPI
quantityKind: kinase still bound, per cent of control (%)
Entry rule: numbers only, all in %.

substanceSmiles: COc1cc(C(=O)NC2CCN(C)CC2)ccc1Nc1ncc2c(n1)N(C1CCCC1)CCC(=O)N2C(C)C
resultValue: 100
//
substanceSmiles: CCCS(=O)(=O)Nc1ccc(F)c(C(=O)c2c[nH]c3ncc(-c4ccc(Cl)cc4)cc23)c1F
resultValue: 99
//
substanceSmiles: C=CC(=O)Nc1cc(NC(=O)c2ccc(C)c(NC(=O)c3ccno3)c2)cc(C(F)(F)F)c1
resultValue: 28

In the following, a different compound is considered.
# kinase still bound, per cent of control lookup, item CCOc1cc2ncc(C#N)c(Nc3ccc(OCc4ccccn4)c(Cl)c3)c2cc1NC(=O)/C=C/CN(C)C
94

###

target: RPS6KA5 KD1 (human); experiment: KINOMEscan competition binding; details: compound 10.0 µM
// values below are reported kinase still bound, per cent of control
Give the value in % but do not write % after it.

Some entries whose results are on file:
substanceSmiles: C[C@@H](Oc1cc(-n2cnc3ccc(CN4CCN(C)CC4)cc32)sc1C(N)=O)c1ccccc1C(F)(F)F
kinase still bound, per cent of control, %: 100
--
substanceSmiles: C=CC(=O)Nc1cc(NC(=O)c2ccc(C)c(NC(=O)c3ccno3)c2)cc(C(F)(F)F)c1
kinase still bound, per cent of control, %: 82
--
substanceSmiles: C=CC(=O)Nc1cccc(Nc2nc(N[C@H]3CC[C@H](N(C)C)CC3)nc3c2ncn3C(C)C)c1
kinase still bound, per cent of control, %: 93

// query kinase still bound, per cent of control value for entry O=C(NC1CC1)c1cccc(-c2ccc3c(NC(=O)C4CC4)n[nH]c3c2)c1
100

One more compound: CCCS(=O)(=O)Nc1ccc(F)c(C(=O)c2c[nH]c3ncc(-c4ccc(Cl)cc4)cc23)c1F
98

Could you do the same for CCOc1cc2ncc(C#N)c(Nc3ccc(OCc4ccccn4)c(Cl)c3)c2cc1NC(=O)/C=C/CN(C)C , please?
100
